Can you tell me 12.5 ng mRNA, 3.9 nM sgRNA Avg % Edit for the items I'm about to list?
Test system: TTR
protocol: TTR editing in primary cyno hepatocytes treated with LNP formulated Spy Cas9 mRNA (SEQ ID NO: 2) and sgRNAs (Tables 17, 18)
Format: cell-based, cynomolgus monkey
settings: Table 17, LNP formulated Spy Cas9 mRNA (SEQ ID NO: 2) and sgRNA, 12.5 ng mRNA, 3.9 nM sgRNA, 72 hours
Method: Primary liver hepatocytes. Primary human liver hepatocytes (PHH) and primary cynomolgus liver hepatocytes (PCH) (Gibco) were cultured per the manufacturer's protocol (Invitrogen, protocol 11.28.2012). […] Cells were counted and plated on Bio-coat collagen I coated 96-well plates (ThermoFisher, Cat. 877272) at a density of 33,000 cells/well for human or 60,000 cells/well for cyno (or 65,000 cells/well when assaying effects on TTR protein, described further below). […]
Strand notation (5' to 3'): a small letter for the sugar, then the base; units joined by * are phosphorothioate-linked, units joined directly phosphodiester-linked; [ ] holds rarer units or linkages, { } end groups; capitals alone tell only the bases. m = 2'-O-methyl; r = 2'-OH (RNA)
// return numeric value only (unit: %, not printed)

Enquiry: Need 12.5 ng mRNA, 3.9 nM sgRNA Avg % Edit of G000483: TTR sgRNA modified sequence, Human, SEQ ID No. 90; guide sequence of CR005298 (nucleic acid) guide: mU*mC*mC*rArCrUrCrArUrUrCrUrUrGrGrCrArGrGrArGrUrUrUrUrArGrAmGmCmUmAmGmAmAmAmUmAmGmCrArArGrUrUrArArArArUrArArGrGrCrUrArGrUrCrCrGrUrUrArUrCrAmAmCmUmUmGmAmAmAmAmAmGmUmGmGmCmAmCmCmGmAmGmUmCmGmGmUmGmCmU*mU*mU*mU , thanks.
Return: 0.73

Enquiry: Need 12.5 ng mRNA, 3.9 nM sgRNA Avg % Edit of G000494: TTR sgRNA modified sequence, Human, SEQ ID No. 101; guide sequence of CR003360 (nucleic acid) guide: mG*mU*mG*rArGrUrCrUrGrGrArGrArGrCrUrGrCrArUrGrUrUrUrUrArGrAmGmCmUmAmGmAmAmAmUmAmGmCrArArGrUrUrArArArArUrArArGrGrCrUrArGrUrCrCrGrUrUrArUrCrAmAmCmUmUmGmAmAmAmAmAmGmUmGmGmCmAmCmCmGmAmGmUmCmGmGmUmGmCmU*mU*mU*mU , thanks.
Return: 14.30

Enquiry: Need 12.5 ng mRNA, 3.9 nM sgRNA Avg % Edit of G000481: TTR sgRNA modified sequence, Human, SEQ ID No. 88; guide sequence of CR003345 (nucleic acid) guide: mU*mC*mU*rArGrArArCrUrUrUrGrArCrCrArUrCrArGrGrUrUrUrUrArGrAmGmCmUmAmGmAmAmAmUmAmGmCrArArGrUrUrArArArArUrArArGrGrCrUrArGrUrCrCrGrUrUrArUrCrAmAmCmUmUmGmAmAmAmAmAmGmUmGmGmCmAmCmCmGmAmGmUmCmGmGmUmGmCmU*mU*mU*mU , thanks.
Return: 49.20
